- TARGET SYSTEM: GCN2 (Homo sapiens)
- Sequence (Q9P2K8 whole entry): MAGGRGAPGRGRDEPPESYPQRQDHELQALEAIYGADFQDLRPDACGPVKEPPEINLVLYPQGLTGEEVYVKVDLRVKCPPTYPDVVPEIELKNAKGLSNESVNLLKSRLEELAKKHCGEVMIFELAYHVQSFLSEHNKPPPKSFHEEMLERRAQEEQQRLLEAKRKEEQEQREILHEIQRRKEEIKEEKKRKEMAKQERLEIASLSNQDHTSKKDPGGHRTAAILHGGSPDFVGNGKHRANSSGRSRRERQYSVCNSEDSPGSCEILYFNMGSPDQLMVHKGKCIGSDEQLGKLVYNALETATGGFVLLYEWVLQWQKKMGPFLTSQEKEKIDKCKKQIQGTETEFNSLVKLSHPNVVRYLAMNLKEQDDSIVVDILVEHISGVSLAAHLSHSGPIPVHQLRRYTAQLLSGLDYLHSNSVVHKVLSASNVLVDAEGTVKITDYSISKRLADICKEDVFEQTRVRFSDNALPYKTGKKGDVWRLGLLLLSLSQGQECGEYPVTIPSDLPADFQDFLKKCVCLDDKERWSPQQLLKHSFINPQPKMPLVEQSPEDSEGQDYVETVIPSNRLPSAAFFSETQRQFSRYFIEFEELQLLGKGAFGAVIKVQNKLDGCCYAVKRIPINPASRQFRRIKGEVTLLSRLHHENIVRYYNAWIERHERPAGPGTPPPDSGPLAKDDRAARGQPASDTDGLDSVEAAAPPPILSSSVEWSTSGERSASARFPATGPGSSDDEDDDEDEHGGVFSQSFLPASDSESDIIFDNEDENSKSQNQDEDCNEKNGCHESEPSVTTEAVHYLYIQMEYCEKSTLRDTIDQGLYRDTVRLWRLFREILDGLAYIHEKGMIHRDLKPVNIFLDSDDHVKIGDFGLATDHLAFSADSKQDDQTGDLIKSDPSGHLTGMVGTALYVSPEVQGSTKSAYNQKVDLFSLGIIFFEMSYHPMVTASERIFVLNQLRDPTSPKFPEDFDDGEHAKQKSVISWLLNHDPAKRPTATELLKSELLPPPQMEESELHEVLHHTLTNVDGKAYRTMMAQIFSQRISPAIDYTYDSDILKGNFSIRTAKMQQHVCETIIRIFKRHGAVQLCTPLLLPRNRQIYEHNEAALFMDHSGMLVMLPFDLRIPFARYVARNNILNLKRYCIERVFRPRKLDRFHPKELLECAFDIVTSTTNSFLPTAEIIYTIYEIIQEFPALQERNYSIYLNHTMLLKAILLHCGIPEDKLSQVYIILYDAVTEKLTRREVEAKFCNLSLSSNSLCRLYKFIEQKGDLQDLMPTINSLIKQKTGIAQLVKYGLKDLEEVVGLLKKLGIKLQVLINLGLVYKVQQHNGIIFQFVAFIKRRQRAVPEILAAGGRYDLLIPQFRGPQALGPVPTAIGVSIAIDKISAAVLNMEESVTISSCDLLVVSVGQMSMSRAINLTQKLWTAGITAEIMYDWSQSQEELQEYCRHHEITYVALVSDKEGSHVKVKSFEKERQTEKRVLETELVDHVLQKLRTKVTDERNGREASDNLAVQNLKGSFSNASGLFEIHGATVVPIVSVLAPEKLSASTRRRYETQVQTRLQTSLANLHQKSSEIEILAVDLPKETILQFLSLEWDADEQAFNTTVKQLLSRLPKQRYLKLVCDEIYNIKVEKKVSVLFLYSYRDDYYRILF
- PROCEDURE SUMMARY: TR-FRET biochemical assay for inhibition of GCN2 (Example 106, for Example 1-4BB)
- CONDITION DETAILS: Table 9
pIC50: −log10 of the molar value.

MOLECULAR STRING: Cc1ncc(F)cc1S(=O)(=O)Nc1cccc(-c2ccc3c(-c4ncc[nH]4)n[nH]c3c2Cl)c1F
pIC50: 5.60 to 6.30
--
MOLECULAR STRING: COc1ncccc1S(=O)(=O)Nc1ccnc(-c2ccc3c(-c4ncc[nH]4)n[nH]c3c2F)c1C#N
pIC50: < 5.00
--
MOLECULAR STRING: COc1ncc(Cl)cc1S(=O)(=O)Nc1c(F)ccc(-c2ccc3c(-c4ncc[nH]4)n[nH]c3c2F)c1F
pIC50: > 6.30
--
MOLECULAR STRING: COc1ncc(F)cc1S(=O)(=O)Nc1ccc(F)c(-c2ccc3c(-c4nnc(C)[nH]4)n[nH]c3c2F)c1F
pIC50: > 6.30
--
MOLECULAR STRING: Cc1ncc(F)cc1S(=O)(=O)Nc1ccc(F)c(-c2ccc3c(C(=O)Nc4cnoc4)n[nH]c3c2F)c1F
pIC50: > 6.30
--
MOLECULAR STRING: COc1ncc(F)cc1S(=O)(=O)Nc1ccc(F)c(-c2ccc3c(C(=O)Nc4ccc(C)nc4)n[nH]c3c2F)c1F
pIC50: > 6.30
--
MOLECULAR STRING: COc1ncc(F)cc1S(=O)(=O)Nc1cc(F)cc(-c2ccc3c(C(=O)NCCCN(C)C)n[nH]c3c2F)c1F
pIC50: > 6.30

* * *

Below: a set of entries, each annotated with reported IC50.
- TARGET SYSTEM: UniProtKB Q9P2K8
- PROCEDURE SUMMARY: TR-FRET assay for inhibition of GCN2 (Example 107, for Examples 40-72)

COMPOUND: COc1ncc(Cl)cc1S(=O)(=O)Nc1ccc(F)c(-c2ccc3c(C(=O)NCC(C)C)n[nH]c3c2F)c1F
TARGET SYSTEM: UniProtKB Q9P2K8
IC50: < 0.5 µM
--
COMPOUND: CNC(=O)c1n[nH]c2c(F)c(-c3c(F)ccc(NS(=O)(=O)c4cc(F)cc(CO)c4)c3F)ccc12
TARGET SYSTEM: UniProtKB Q9P2K8
IC50: < 0.5 µM
--
COMPOUND: COc1ncc(Cl)cc1S(=O)(=O)Nc1ccc(F)c(-c2ccc3c(C(=O)NC4CCCOC4)n[nH]c3c2F)c1F (stereo not drawn)
TARGET SYSTEM: UniProtKB Q9P2K8
IC50: < 0.5 µM
--
COMPOUND: CNC(=O)c1n[nH]c2c(F)c(-c3c(F)ccc(NS(=O)(=O)c4cc(F)cnc4OC)c3F)ncc12
TARGET SYSTEM: UniProtKB Q9P2K8
IC50: < 0.5 µM
--
COMPOUND: COc1ncc(Cl)cc1S(=O)(=O)Nc1ccc(F)c(-c2ccc3c(C(=O)NC4CCNC4=O)n[nH]c3c2F)c1F (stereo not drawn)
TARGET SYSTEM: UniProtKB Q9P2K8
IC50: < 0.5 µM
--
COMPOUND: COc1ncc(Cl)cc1S(=O)(=O)Nc1ccc(F)c(-c2ccc3c(C(=O)NC4CCC(=O)N(C)C4)n[nH]c3c2F)c1F (stereo not drawn)
TARGET SYSTEM: UniProtKB Q9P2K8
IC50: < 0.5 µM
--
COMPOUND: CNC(=O)c1n[nH]c2c(F)c(-c3c(F)ccc(NS(=O)(=O)c4ccc5ccoc5c4)c3F)ccc12
TARGET SYSTEM: UniProtKB Q9P2K8
IC50: 0.5 to 2.5 µM
--
COMPOUND: CCCC(C)NC(=O)c1n[nH]c2c(F)c(-c3c(F)ccc(NS(=O)(=O)c4cc(Cl)cnc4OC)c3F)ccc12 (stereo not drawn)
TARGET SYSTEM: UniProtKB Q9P2K8
IC50: < 0.5 µM
--
COMPOUND: CNC(=O)c1n[nH]c2c(F)c(-c3c(F)ccc(NS(=O)(=O)c4cccc5occc45)c3F)ccc12
TARGET SYSTEM: UniProtKB Q9P2K8
IC50: < 0.5 µM

* * *

IC50 listing for selected compounds.
- TARGET SYSTEM: GCN2 (Homo sapiens)
- PROCEDURE SUMMARY: TR-FRET biochemical assay for inhibition of GCN2 (Example 106, for Example 1-4BB)
- CONDITION DETAILS: Table 9

COMPOUND: COc1ncc(F)cc1S(=O)(=O)Nc1ccc(F)c(-c2ccc3c(C(=O)NC[C@H](O)CO)n[nH]c3c2F)c1F
TARGET SYSTEM: GCN2 (Homo sapiens)
IC50: < 500 nM

COMPOUND: COc1ncc(F)cc1S(=O)(=O)Nc1ncc(F)c(-c2ccc3c(-c4ncc[nH]4)n[nH]c3c2F)c1F
TARGET SYSTEM: GCN2 (Homo sapiens)
IC50: < 500 nM

COMPOUND: NC(=O)c1n[nH]c2c(F)c(-c3c(F)ccc(NS(=O)(=O)c4cc(F)cc5c4CCC5O)c3F)ccc12 (stereo not shown)
TARGET SYSTEM: GCN2 (Homo sapiens)
IC50: < 500 nM

COMPOUND: Cc1c(CO)cc(F)cc1S(=O)(=O)Nc1ccc(F)c(-c2ccc3c(C(N)=O)n[nH]c3c2F)c1F
TARGET SYSTEM: GCN2 (Homo sapiens)
IC50: < 500 nM

COMPOUND: COc1ncc(Cl)cc1S(=O)(=O)Nc1cc(F)cc(-c2ncc3c(-c4ncc[nH]4)n[nH]c3c2F)c1F
TARGET SYSTEM: GCN2 (Homo sapiens)
IC50: < 500 nM

COMPOUND: NC1CCc2c1cc(F)cc2S(=O)(=O)Nc1ccc(F)c(-c2ccc3c(-c4ncc[nH]4)n[nH]c3c2F)c1F (stereo not shown)
TARGET SYSTEM: GCN2 (Homo sapiens)
IC50: > 10000 nM

COMPOUND: Cc1ccc(S(=O)(=O)Nc2ccc(F)c(-c3ccc4c(C(=O)NCCCN(C)C)n[nH]c4c3F)c2F)c(C)n1
TARGET SYSTEM: GCN2 (Homo sapiens)
IC50: 500 to 2500 nM

* * *

# key: entry, value: pIC50
- TARGET SYSTEM: GCN2 (Homo sapiens)
- PROCEDURE SUMMARY: TR-FRET biochemical assay for inhibition of GCN2 (Example 106, for Example 1-4BB)
- CONDITION DETAILS: Table 8
pIC50: −log10 of the molar value.

MOLECULAR STRING: CC(C)c1cccc(S(=O)(=O)Nc2ccc(F)c(-c3ccc4c(-c5ncc[nH]5)n[nH]c4c3F)c2F)c1
TARGET SYSTEM: GCN2 (Homo sapiens)
pIC50: 5.00 to 5.60
--
MOLECULAR STRING: Cn1nncc1S(=O)(=O)Nc1ccc(F)c(-c2ccc3c(-c4ncc[nH]4)n[nH]c3c2F)c1F
TARGET SYSTEM: GCN2 (Homo sapiens)
pIC50: 5.00 to 5.60
--
MOLECULAR STRING: O=S(=O)(Nc1ccc(F)c(-c2ccc3c(-c4ncc[nH]4)n[nH]c3c2F)c1F)c1ccccc1F
TARGET SYSTEM: GCN2 (Homo sapiens)
pIC50: > 6.30
--
MOLECULAR STRING: O=S(=O)(Nc1ccc(F)c(-c2ccc3c(-c4ncc[nH]4)n[nH]c3c2F)c1F)c1cccc(Cl)c1F
TARGET SYSTEM: GCN2 (Homo sapiens)
pIC50: > 6.30
--
MOLECULAR STRING: O=S(=O)(Nc1ccc(F)c(-c2ccc3c(-c4ncc[nH]4)n[nH]c3c2F)c1F)c1ccc(F)c(F)c1
TARGET SYSTEM: GCN2 (Homo sapiens)
pIC50: 5.60 to 6.30
--
MOLECULAR STRING: O=S(=O)(Nc1ccc(F)c(-c2ccc3c(-c4ncc[nH]4)n[nH]c3c2F)c1F)c1cc(Cl)ccc1Cl
TARGET SYSTEM: GCN2 (Homo sapiens)
pIC50: > 6.30
--
MOLECULAR STRING: O=S(=O)(Nc1ccc(F)c(-c2ccc3c(-c4ncc[nH]4)n[nH]c3c2F)c1F)c1cc(Cl)ccc1F
TARGET SYSTEM: GCN2 (Homo sapiens)
pIC50: > 6.30

* * *

- TARGET SYSTEM: GCN2 (Homo sapiens)
- PROCEDURE SUMMARY: TR-FRET biochemical assay for inhibition of GCN2 (Example 106, for Example 1-4BB)
- CONDITION DETAILS: Table 8
MEASURE NAME: IC50

MOLECULAR STRING: COc1ncc(Cl)cc1S(=O)(=O)Nc1ccc(F)c(-c2ccc3c(NC(C)=O)n[nH]c3c2F)c1F
MEASUREMENT: 500 to 2500 nM
//
MOLECULAR STRING: Cc1noc(C)c1S(=O)(=O)Nc1ccc(F)c(-c2ccc3c(-c4ncc[nH]4)n[nH]c3c2F)c1F
MEASUREMENT: < 500 nM
//
MOLECULAR STRING: COc1ncc(Cl)cc1S(=O)(=O)Nc1ncc(F)c(-c2ccc3c(-c4ncc[nH]4)n[nH]c3c2F)c1F
MEASUREMENT: < 500 nM
//
MOLECULAR STRING: COc1ncc(Cl)cc1S(=O)(=O)Nc1cccc(-c2ccc3c(-c4ncc[nH]4)n[nH]c3c2F)c1C
MEASUREMENT: < 500 nM
//
MOLECULAR STRING: COc1ncc(Cl)cc1S(=O)(=O)Nc1ccc(F)c(-c2ccc3c(C(=O)N(C)C)n[nH]c3c2F)c1F
MEASUREMENT: 500 to 2500 nM
//
MOLECULAR STRING: COc1ncc(Cl)cc1S(=O)(=O)Nc1ncnc(-c2ccc3c(-c4ncc[nH]4)n[nH]c3c2F)c1F
MEASUREMENT: < 500 nM
//
MOLECULAR STRING: O=c1[nH]cccc1S(=O)(=O)Nc1ccc(F)c(-c2ccc3c(-c4ncc[nH]4)n[nH]c3c2F)c1F
MEASUREMENT: 2500 to 10000 nM
